system: 435261-313-R-J1-PDC complex spheroid viability; assay: Anticancer human tumor 435261-313-R-J1-PDC patient-derived colon adenocarcinoma cell line growth inhibition [GQUAD]; settings: second compound 10 µM; first compound 0.00316 µM; active = viability on the fitted dose curve at most 10% of control; inactive = the rest;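 note: spheroids exposed to the agents for seven days before readout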
Labels: Y for active, N for inactive

molecule="CC[C@@]1(O)C(=O)OCc2c1cc1n(c2=O)Cc2cc3c(CN(C)C)c(O)ccc3nc2-1 + Cc1cnc(CNC(=O)c2c(=O)c3ccc(N4CCCN(C)CC4)nc3n3c2sc2ccccc23)cn1" category_label=Y
molecule="Cn1ncnc1[C@H]1c2n[nH]c(=O)c3cc(F)cc(c23)N[C@@H]1c1ccc(F)cc1 + CN(C)c1ccc(Nc2c3ccc(NC(=O)CCN4CCCC4)cc3nc3cc(NC(=O)CCN4CCCC4)ccc23)cc1" category_label=N
molecule="CC[C@@]1(O)C(=O)OCc2c1cc1n(c2=O)Cc2cc3c(CN(C)C)c(O)ccc3nc2-1 + Cc1[nH]c2ccc(F)cc2c1-c1nc2c3cccnc3c3ncccc3c2[nH]1" category_label=N
molecule="CCc1c2c(nc3ccc(O)cc13)-c1cc3c(c(=O)n1C2)COC(=O)[C@]3(O)CC + CN(C)c1ccc(Nc2c3ccc(NC(=O)CCN4CCCC4)cc3nc3cc(NC(=O)CCN4CCCC4)ccc23)cc1" category_label=N
molecule="Cc1[nH]c2ccccc2c1CCNCc1ccc(/C=C/C(=O)NO)cc1 + CN(C)c1ccc(Nc2c3ccc(NC(=O)CCN4CCCC4)cc3nc3cc(NC(=O)CCN4CCCC4)ccc23)cc1" category_label=N

Ref: PubChem BioAssay AID2060494
